Data credit: PubChem BioAssay AID623970

experiment: compound-DNA interaction, SYBR readout – biochemical, fluorescence, artefact control for HCV NS3 helicase inhibitor project, late-stage follow-up (AID 623970); settings: DNA binding, SYBR dye displacement fluorescence
Calls of active or inactive are those of the source. No stated cut-off is given here; in the data, active means IC50 below about 90 µM; inactive means the rest.
Classes used: y for active, n for inactive

compound	label.value
Cc1ccc2nc(-c3ccc4nc(-c5ccc(NC(=O)c6ccccc6C(F)(F)F)cc5)sc4c3)sc2c1S(=O)(=O)O	n
Cc1ccc2nc(-c3ccc4nc(-c5ccc(NC(=O)c6cc(C(F)(F)F)ccc6F)cc5)sc4c3)sc2c1S(=O)(=O)O	n
Cc1ccc2nc(-c3ccc4nc(-c5ccc(NC(=O)c6c(F)cccc6C(F)(F)F)cc5)sc4c3)sc2c1S(=O)(=O)O	y
Cc1ccc2nc(-c3ccc4nc(-c5ccc(NC(=O)c6ccc(NC(=O)OCC7c8ccccc8-c8ccccc87)cc6)cc5)sc4c3)sc2c1S(=O)(=O)O	y
Cc1ccc2nc(-c3ccc4nc(-c5ccc(NC(=O)c6ccc7ncoc7c6)cc5)sc4c3)sc2c1S(=O)(=O)O	y
CN1CCN(Cc2cc(CN3CCN(C)CC3)c(O)c(=O)c(CN3CCN(C)CC3)c2)CC1	y
CCN(CC)c1ccc(-c2nc3ccc(-c4nc5ccc(C)c(S(=O)(=O)O)c5s4)cc3s2)cc1	y
NS(=O)(=O)c1ccc2nc(NC(=O)c3ccc4ncsc4c3)sc2c1	n
Cc1ccc2nc(-c3ccc4nc(-c5ccc(NC(=O)Nc6ccc(C(F)(F)F)cc6)cc5)sc4c3)sc2c1S(=O)(=O)O	y
Cc1ccc2nc(-c3ccc4nc(-c5ccc(NC(=O)Nc6ccc(F)cc6)cc5)sc4c3)sc2c1S(=O)(=O)O	y
COc1ccc(NC(=O)Nc2ccc(-c3nc4ccc(-c5nc6ccc(C)c(S(=O)(=O)O)c6s5)cc4s3)cc2)cc1	y
Cc1ccc2nc(-c3ccc(NC(=O)c4ccc(NC(=O)c5ccc(N)cc5)cc4)cc3)sc2c1S(=O)(=O)O	n
Cc1ccc2nc(-c3ccc4nc(-c5ccc6nc(-c7ccc8nc(-c9ccc(N)cc9)sc8c7)sc6c5)sc4c3)sc2c1S(=O)(=O)O	y
CC(=O)Nc1ccc(-c2nc3ccc(-c4nc5ccc(C)c(S(=O)(=O)O)c5s4)cc3s2)cc1	n
Cc1ccc2nc(-c3ccc(NC(=O)c4ccc(C(F)(F)F)cc4)cc3)sc2c1S(=O)(=O)O	n
Cc1ccc2nc(-c3ccc4nc(-c5ccc(NC(=O)c6ccc(Cl)c(Cl)c6)cc5)sc4c3)sc2c1S(=O)(=O)O	y
Cc1cc2sc(-c3ccc(N)cc3)nc2cc1S(=O)(=O)O	n
Cc1ccc2nc(-c3ccc4nc(-c5ccc(NC(=O)c6cccc(Cl)c6)cc5)sc4c3)sc2c1S(=O)(=O)O	n
Cc1cc2sc(-c3ccc4nc(-c5ccc(N)cc5)sc4c3)nc2cc1S(=O)(=O)O	y
Cc1ccc2nc(-c3ccc(NC(=O)c4ccc(NC(=O)Nc5ccccc5)cc4)cc3)sc2c1S(=O)(=O)O	n
Cc1ccc2c(sc(-c3ccc4c(c3)sc(-c3ccc5c(c3)sc(-c3ccc(N(C)C)cc3)[n+]5C)[n+]4C)[n+]2C)c1S(=O)(=O)O (tested in a mixture with another compound)	y
CCOc1ccc2c(NNC(=O)c3cnccn3)c3c(nc2c1)CCCC3	n
Cc1ccc2nc(-c3ccc4nc(-c5ccc(NC(=O)c6cc(F)ccc6C(F)(F)F)cc5)sc4c3)sc2c1S(=O)(=O)O	n
Cc1ccc2nc(-c3ccc(NC(=O)c4ccc(NC(=O)c5ccccc5)cc4)cc3)sc2c1S(=O)(=O)O	n
Cc1ccc2nc(-c3ccc4nc(-c5ccc(NC(=O)c6ccncc6)cc5)sc4c3)sc2c1S(=O)(=O)O	n
Cc1ccc2nc(-c3ccc4nc(-c5ccc(NC(=O)c6cc(C(F)(F)F)cc(C(F)(F)F)c6)cc5)sc4c3)sc2c1S(=O)(=O)O	y
Cc1ccc2nc(-c3ccc4nc(-c5ccc6nc(-c7ccc(N)cc7)sc6c5)sc4c3)sc2c1S(=O)(=O)O (tested in a mixture with another compound)	y
Cc1ccc2nc(-c3ccc4nc(-c5ccc(NC(=O)c6ccccc6)cc5)sc4c3)sc2c1S(=O)(=O)O	n
Cc1ccc2nc(-c3ccc4nc(-c5ccc(NCc6ccccc6)cc5)sc4c3)sc2c1S(=O)(=O)O	y
Cc1ccc2nc(-c3ccc(NC(=O)c4ccc(NC(=S)Nc5ccccc5)cc4)cc3)sc2c1S(=O)(=O)O	n
COc1ccc(C(=O)Nc2ccc(-c3nc4ccc(-c5nc6ccc(C)c(S(=O)(=O)O)c6s5)cc4s3)cc2)cc1	n
Cc1ccc(NC(=O)Nc2ccc(-c3nc4ccc(-c5nc6ccc(C)c(S(=O)(=O)O)c6s5)cc4s3)cc2)cc1	y

---

IC50 values for the molecules below.
assay: compound-DNA interaction, SYBR readout – biochemical, fluorescence, artefact control for HCV NS3 helicase inhibitor project, late-stage follow-up (AID 623970); settings: DNA binding, SYBR dye displacement fluorescence
Calls of active or inactive are those of the source. Cut-off read from the data, not from the text of the source: active = IC50 below about 90 µM; inactive = the rest.
reported.property: IC50

> print(dat)
                                smiles.data  reported.property               result
1  Cc1ccc2nc(-c3ccc(NC(=O)c4ccc(NC(=O)c5ccc(NC(=O)OCC6c7ccccc7-c7ccccc76)cc5)cc4)cc3)sc2c1S(=O)(=O)O               IC50  > 100 µM (inactive)
2  Cc1ccc2nc(-c3ccc4nc(-c5ccc(NC(=O)c6cccnc6)cc5)sc4c3)sc2c1S(=O)(=O)O               IC50  > 100 µM (inactive)
3  Cc1ccc2nc(-c3ccc4nc(-c5ccc(NC(=O)c6ccc(C(F)(F)F)cc6)cc5)sc4c3)sc2c1S(=O)(=O)O               IC50       29 µM (active)
4  Cc1ccc2nc(-c3ccc4nc(-c5ccc(NC(=O)c6ccc7nc(-c8ccc(N)cc8)sc7c6)cc5)sc4c3)sc2c1S(=O)(=O)O               IC50       68 µM (active)
